System: 889142-216-R-J1-PDC complex spheroid viability
Assay: Anticancer human tumor 889142-216-R-J1-PDC patient-derived bladder carcinoma cell line growth inhibition [POLQ]
Conditions: second compound 0.1 µM; first compound 0.0316 µM; stronger effect = lower value
ENDPOINT_NAME: viability, T/C (%)
Note: unit % is implicit; provide only the numeric part.

Input: Reported viability, T/C, compound O=C(Nc1ccc(O)c(NS(=O)(=O)c2ccc(F)cc2)c1)c1ccc(-c2ccccc2)cc1 + Cc1cccc(N(C)C(=O)C2C(O)CCN2c2nc(C)cc(C(F)(F)F)c2C#N)c1 : ____
Output: 94.9

Input: Try COc1cc2cc(C(=O)CCC(=O)O)sc2cc1OC + Cc1cccc(N(C)C(=O)C2C(O)CCN2c2nc(C)cc(C(F)(F)F)c2C#N)c1 next.
Output: 76.5

Input: Try C=CCn1c(=O)c2cnc(Nc3ccc(N4CCN(C)CC4)cc3)nc2n1-c1cccc(C(C)(C)O)n1 + Cc1cccc(N(C)C(=O)C2C(O)CCN2c2nc(C)cc(C(F)(F)F)c2C#N)c1 next.
Output: 104

Input: Try CC(C)n1c(=O)n(C)c2cnc3cc(F)c(-c4ccc(OCCCN5CCCCC5)nc4)cc3c21 + Nc1ccc(C#CCN(C(=O)Cc2ncc(C(F)(F)F)cc2C(F)(F)F)c2ccc(F)cc2)nn1 next.
Output: 122

Input: Try Nc1ccn(C2OC(CO)C(O)C2(F)F)c(=O)n1 (configuration not stated) + Cc1cccc(N(C)C(=O)C2C(O)CCN2c2nc(C)cc(C(F)(F)F)c2C#N)c1 next.
Output: 59

Input: Try CC1COCCN1c1cc(C2(S(C)(=N)=O)CC2)nc(-c2ccnc3[nH]ccc23)n1 (configuration not stated) + Cc1cccc(N(C)C(=O)C2C(O)CCN2c2nc(C)cc(C(F)(F)F)c2C#N)c1 next.
Output: 92.9

Input: Try C#Cc1c(F)ccc2cc(O)cc(-c3ncc4c(N5CC6CCC(C5)N6)nc(OCC56CCCN5CC(F)C6)nc4c3F)c12 (configuration not stated) + COC1C(OC(N)=O)C(O)C(Oc2ccc3c(O)c(NC(=O)c4ccc(O)c(CC=C(C)C)c4)c(=O)oc3c2C)OC1(C)C next.
Output: 108

Input: Try Cn1ncnc1[C@H]1c2n[nH]c(=O)c3cc(F)cc(c23)N[C@@H]1c1ccc(F)cc1 + Cc1cccc(N(C)C(=O)C2C(O)CCN2c2nc(C)cc(C(F)(F)F)c2C#N)c1 next.
Output: 87.9

Input: Try CCc1cc2c(N3CCc4c(cc(Cn5ccnc5)cc4-c4cn(C)nc4C(F)(F)F)C3=O)cc(C)nc2c(OC)n1 + Cc1cccc(N(C)C(=O)C2C(O)CCN2c2nc(C)cc(C(F)(F)F)c2C#N)c1 next.
Output: 119

Input: Try COc1ccc([C@@H](O)c2cc(-c3ncnc4cc(N5CCOCC5)ccc34)c(F)cc2Cl)nn1 + Nc1ccc(C#CCN(C(=O)Cc2ncc(C(F)(F)F)cc2C(F)(F)F)c2ccc(F)cc2)nn1 next.
Output: 113

Input: Try CC1COCCN1c1cc(-c2ccnn2C)c2ccnc(-c3ccn[nH]3)c2n1 (configuration not stated) + Cc1cccc(N(C)C(=O)C2C(O)CCN2c2nc(C)cc(C(F)(F)F)c2C#N)c1 next.
Output: 67.9

Input: Try C#Cc1c(F)ccc2cc(O)cc(-c3ncc4c(N5CC6CCC(C5)N6)nc(OCC56CCCN5CC(F)C6)nc4c3F)c12 (configuration not stated) + Cc1cccc(N(C)C(=O)C2C(O)CCN2c2nc(C)cc(C(F)(F)F)c2C#N)c1 next.
Output: 104

###

IC50 values for the compounds below.
System: 889142-216-R-J1-PDC complex spheroid viability
Test: Anticancer human tumor 889142-216-R-J1-PDC cell line growth inhibition [POLQ];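 note: spheroids exposed to compounds for seven days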
Settings: curve of first compound; second compound 0.1 µM

Some solved entries appear below for comparison.
[
  {
    "COMPOUND": "O=c1[nH]cc(F)c(=O)[nH]1 + Nc1ccc(C#CCN(C(=O)Cc2ncc(C(F)(F)F)cc2C(F)(F)F)c2ccc(F)cc2)nn1",
    "IC50": "> 10 µM"
  },
  {
    "COMPOUND": "C=CCn1c(=O)c2cnc(Nc3ccc(N4CCN(C)CC4)cc3)nc2n1-c1cccc(C(C)(C)O)n1 + Nc1ccc(C#CCN(C(=O)Cc2ncc(C(F)(F)F)cc2C(F)(F)F)c2ccc(F)cc2)nn1",
    "IC50": "> 1 µM"
  }
]

Now look at this one.
Input: Reported IC50, compound CC(C)n1c(=O)n(C)c2cnc3cc(F)c(-c4ccc(OCCCN5CCCCC5)nc4)cc3c21 + Nc1ccc(C#CCN(C(=O)Cc2ncc(C(F)(F)F)cc2C(F)(F)F)c2ccc(F)cc2)nn1 : ____
Output: > 10 µM

###

Tested on: 889142-216-R-J1-PDC complex spheroid viability
Assay: Anticancer human tumor 889142-216-R-J1-PDC cell line growth inhibition [POLQ];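 note: spheroids exposed to compounds for seven days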;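 for viability, T/C: 100% = DMSO vehicle control viability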
Conditions: second compound 10 µM; first compound 0.316 µM; stronger effect = lower value
viability, T/C values for the molecules below.
Note: unit % is implicit; provide only the numeric part.

[
  {
    "MOLECULE": "CC1COCCN1c1cc(-c2ccnn2C)c2ccnc(-c3ccn[nH]3)c2n1 (configuration not stated) + COC1C(OC(N)=O)C(O)C(Oc2ccc3c(O)c(NC(=O)c4ccc(O)c(CC=C(C)C)c4)c(=O)oc3c2C)OC1(C)C",
    "viability, T/C, %": 49.7
  },
  {
    "MOLECULE": "C#Cc1c(F)ccc2cc(O)cc(-c3ncc4c(N5CC6CCC(C5)N6)nc(OCC56CCCN5CC(F)C6)nc4c3F)c12 (configuration not stated) + Nc1ccc(C#CCN(C(=O)Cc2ncc(C(F)(F)F)cc2C(F)(F)F)c2ccc(F)cc2)nn1",
    "viability, T/C, %": 108
  }
]

Input: Reported viability, T/C, molecule CCc1cc2c(N3CCc4c(cc(Cn5ccnc5)cc4-c4cn(C)nc4C(F)(F)F)C3=O)cc(C)nc2c(OC)n1 + Nc1ccc(C#CCN(C(=O)Cc2ncc(C(F)(F)F)cc2C(F)(F)F)c2ccc(F)cc2)nn1 : ____
Output: 112

Input: Try COc1cc(C2c3cc4c(cc3C(OC3OC5COC(C)OC5C(O)C3O)C3COC(=O)C23)OCO4)cc(OC)c1O (configuration not stated) + COC1C(OC(N)=O)C(O)C(Oc2ccc3c(O)c(NC(=O)c4ccc(O)c(CC=C(C)C)c4)c(=O)oc3c2C)OC1(C)C next.
Output: 56.7

Input: Try CCCS(=O)(=O)Nc1ccc(F)c(C(=O)c2c[nH]c3ncc(-c4ccc(Cl)cc4)cc23)c1F + Nc1ccc(C#CCN(C(=O)Cc2ncc(C(F)(F)F)cc2C(F)(F)F)c2ccc(F)cc2)nn1 next.
Output: 98.7

Input: Try CC1COCCN1c1cc(C2(O)CC3CCC(C2)O3)c2cnn(-c3ccn[nH]3)c2n1 (configuration not stated) + Cc1cccc(N(C)C(=O)C2C(O)CCN2c2nc(C)cc(C(F)(F)F)c2C#N)c1 next.
Output: 37.6

Input: Try O=c1[nH]cc(F)c(=O)[nH]1 + Nc1ccc(C#CCN(C(=O)Cc2ncc(C(F)(F)F)cc2C(F)(F)F)c2ccc(F)cc2)nn1 next.
Output: 83.2

Input: Try COc1cc2cc(C(=O)CCC(=O)O)sc2cc1OC + Cc1cccc(N(C)C(=O)C2C(O)CCN2c2nc(C)cc(C(F)(F)F)c2C#N)c1 next.
Output: 78.5

Input: Try C=CCn1c(=O)c2cnc(Nc3ccc(N4CCN(C)CC4)cc3)nc2n1-c1cccc(C(C)(C)O)n1 + Cc1cccc(N(C)C(=O)C2C(O)CCN2c2nc(C)cc(C(F)(F)F)c2C#N)c1 next.
Output: 70.2

Input: Try CC1COCCN1c1cc(C2(S(C)(=N)=O)CC2)nc(-c2ccnc3[nH]ccc23)n1 (configuration not stated) + Nc1ccc(C#CCN(C(=O)Cc2ncc(C(F)(F)F)cc2C(F)(F)F)c2ccc(F)cc2)nn1 next.
Output: 111

Input: Try CCCS(=O)(=O)Nc1ccc(F)c(C(=O)c2c[nH]c3ncc(-c4ccc(Cl)cc4)cc23)c1F + Cc1cccc(N(C)C(=O)C2C(O)CCN2c2nc(C)cc(C(F)(F)F)c2C#N)c1 next.
Output: 90.1

Input: Try CC(C)n1c(=O)n(C)c2cnc3cc(F)c(-c4ccc(OCCCN5CCCCC5)nc4)cc3c21 + COC1C(OC(N)=O)C(O)C(Oc2ccc3c(O)c(NC(=O)c4ccc(O)c(CC=C(C)C)c4)c(=O)oc3c2C)OC1(C)C next.
Output: 81.3

###

System: 889142-216-R-J1-PDC complex spheroid viability
Assay: Anticancer human tumor 889142-216-R-J1-PDC cell line growth inhibition [POLQ];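 note: spheroids exposed to compounds for seven days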
Details: curve of first compound; second compound 0.1 µM
Method: Multicellular complex tumor spheroid response to Polymerase (POL) inhibitors (novobiocin, ART-558, RP6685) in combination with a variety of drugs and investigational agents in selected tumor cell lines The POL inhibitors (novobiocin, ART-558, and RP6685) were evaluated both individually and in combination with standard of care and investigational anticancer small molecules within a complex spheroid model of solid tumors. . […]
pIC50 values for the compounds below.
pIC50 field: float, defined as -log10 of concentration (mol/L).

Some solved entries appear below for comparison.
[
  {
    "COMPOUND": "Nc1ccn(C2OC(CO)C(O)C2(F)F)c(=O)n1 (stereo not given) + COC1C(OC(N)=O)C(O)C(Oc2ccc3c(O)c(NC(=O)c4ccc(O)c(CC=C(C)C)c4)c(=O)oc3c2C)OC1(C)C",
    "TEST_SYSTEM": "889142-216-R-J1-PDC complex spheroid viability",
    "ENDPOINT_NAME": "pIC50",
    "OBSERVED_RESULT": 6.65
  },
  {
    "COMPOUND": "COc1ccc([C@@H](O)c2cc(-c3ncnc4cc(N5CCOCC5)ccc34)c(F)cc2Cl)nn1 + Nc1ccc(C#CCN(C(=O)Cc2ncc(C(F)(F)F)cc2C(F)(F)F)c2ccc(F)cc2)nn1",
    "TEST_SYSTEM": "889142-216-R-J1-PDC complex spheroid viability",
    "ENDPOINT_NAME": "pIC50",
    "OBSERVED_RESULT": 5.30
  },
  {
    "COMPOUND": "COc1ccc([C@@H](O)c2cc(-c3ncnc4cc(N5CCOCC5)ccc34)c(F)cc2Cl)nn1 + Cc1cccc(N(C)C(=O)C2C(O)CCN2c2nc(C)cc(C(F)(F)F)c2C#N)c1",
    "TEST_SYSTEM": "889142-216-R-J1-PDC complex spheroid viability",
    "ENDPOINT_NAME": "pIC50",
    "OBSERVED_RESULT": 5.57
  }
]

Input: Reported pIC50, compound C#Cc1c(F)ccc2cc(O)cc(-c3ncc4c(N5CC6CCC(C5)N6)nc(OCC56CCCN5CC(F)C6)nc4c3F)c12 (stereo not given) + Nc1ccc(C#CCN(C(=O)Cc2ncc(C(F)(F)F)cc2C(F)(F)F)c2ccc(F)cc2)nn1 : ____
Output: 5.12
